System: NCI-H1703
METHOD SUMMARY: relative viability (nuclei count vs DMSO), 5 days (fraction); higher = more cells survive
CONDITION: first compound 0.02 µM
RESULT TYPE: relative viability
One number for each entry.

{"columns": ["MOLECULE", "RESULT TYPE", "RECORDED MEASUREMENT"],
 "data": [
  ["CCNC(=O)c1noc(-c2cc(C(C)C)c(O)cc2O)c1-c1ccc(CN2CCOCC2)cc1 [Luminespib] + CS(=O)(=O)N1CCN(Cc2cc3nc(-c4cccc5[nH]ncc45)nc(N4CCOCC4)c3s2)CC1 [Pictilisib] (partner 1 µM)", "relative viability", 0.179]
]}

Q: Entry CN1CCN(CCOc2cc(OC3CCOCC3)c3c(Nc4c(Cl)ccc5c4OCO5)ncnc3c2)CC1 [Saracatinib] + COc1cc2c(Oc3ccc(NC(=O)C4(C(=O)Nc5ccc(F)cc5)CC4)cc3F)ccnc2cc1OCCCN1CCOCC1 [Foretinib] (partner 0.25 µM) has what relative viability?
Result: 0.38

----------
For each entry below, report its relative viability value.
Test system: NCI-H2342
METHOD SUMMARY: relative viability (nuclei count vs DMSO), 5 days (fraction); higher = more cells survive
CONDITION: first compound 0.2 µM
Give bare numbers.

A selection of reference data follows.
{"columns": ["COMPOUND", "ASSAY TARGET", "relative viability"],
 "data": [
  ["CCNC(=O)c1noc(-c2cc(C(C)C)c(O)cc2O)c1-c1ccc(CN2CCOCC2)cc1 [Luminespib] + Cc1nc(Nc2ncc(C(=O)Nc3c(C)cccc3Cl)s2)cc(N2CCN(CCO)CC2)n1 [Dasatinib] (partner 0.075 µM)", "NCI-H2342", 0.311],
  ["Cc1csc(=NC2CCCCC2)n1/N=C/c1ccc(O)c(O)c1O [MIM1] + CCNC(=O)c1noc(-c2cc(C(C)C)c(O)cc2O)c1-c1ccc(CN2CCOCC2)cc1 [Luminespib] (partner 0.01 µM)", "NCI-H2342", 0.739],
  ["CCNC(=O)c1noc(-c2cc(C(C)C)c(O)cc2O)c1-c1ccc(CN2CCOCC2)cc1 [Luminespib] + Nc1nc2[nH]cc(CCc3ccc(C(=O)N[C@@H](CCC(=O)O)C(=O)O)cc3)c2c(=O)[nH]1 [Pemetrexed] (partner 0.2 µM)", "NCI-H2342", 0.454]
]}

Turning now to a further compound:
Q: What value of measured relative viability is listed for CN1CCN(CCOc2cc(OC3CCOCC3)c3c(Nc4c(Cl)ccc5c4OCO5)ncnc3c2)CC1 [Saracatinib] + Cc1cc(Nc2cc(N3CCN(C)CC3)nc(Sc3ccc(NC(=O)C4CC4)cc3)n2)n[nH]1 [Tozasertib] (partner 0.1 µM) ?
Result: 0.608

----------
System: NCI-H596
METHOD SUMMARY: relative viability (nuclei count vs DMSO), 5 days (fraction); higher = more cells survive
CONDITION: first compound 0.06325 µM
Exercise: state measured relative viability for each of the molecules provided.

{"columns": ["MOLECULE", "relative viability"],
 "data": [
  ["CCNC(=O)c1noc(-c2cc(C(C)C)c(O)cc2O)c1-c1ccc(CN2CCOCC2)cc1 [Luminespib] + CC1(C)CCC(c2ccc(Cl)cc2)=C(CN2CCN(c3ccc(C(=O)NS(=O)(=O)c4ccc(N[C@H](CCN5CCOCC5)CSc5ccccc5)c(S(=O)(=O)C(F)(F)F)c4)cc3)CC2)C1 [Navitoclax] (partner 0.5 µM)", 0.936]
]}

For each of the molecules below, note its relative viability.
1. CCNC(=O)c1noc(-c2cc(C(C)C)c(O)cc2O)c1-c1ccc(CN2CCOCC2)cc1 [Luminespib] + NC(=O)Nc1cc(-c2cccc(F)c2)sc1C(=O)N[C@H]1CCCNC1 [AZD7762] (partner 0.2 µM)
2. CCNC(=O)c1noc(-c2cc(C(C)C)c(O)cc2O)c1-c1ccc(CN2CCOCC2)cc1 [Luminespib] + COc1cccc2cc(-c3nc([C@H]4CC[C@H](C(=O)O)CC4)n4ncnc(N)c34)[nH]c12 [OSI-027] (partner 0.5 µM)
3. CCNC(=O)c1noc(-c2cc(C(C)C)c(O)cc2O)c1-c1ccc(CN2CCOCC2)cc1 [Luminespib] + CC(=O)Nc1cccc(-n2c(=O)n(C3CC3)c(=O)c3c(Nc4ccc(I)cc4F)n(C)c(=O)c(C)c32)c1 [Trametinib] (partner 0.02 µM)
4. CCNC(=O)c1noc(-c2cc(C(C)C)c(O)cc2O)c1-c1ccc(CN2CCOCC2)cc1 [Luminespib] + O=C(CCCCCCC(=O)Nc1ccccc1)NO [Vorinostat] (partner 1 µM)
5. CCNC(=O)c1noc(-c2cc(C(C)C)c(O)cc2O)c1-c1ccc(CN2CCOCC2)cc1 [Luminespib] + COc1cc2c(Oc3ccc(NC(=O)C4(C(=O)Nc5ccc(F)cc5)CC4)cc3F)ccnc2cc1OCCCN1CCOCC1 [Foretinib] (partner 0.25 µM)

Result:
1. 0.934
2. 0.642
3. 0.806
4. 0.634
5. 0.787
